Target: ACAT (acyl-Coenzyme A: cholesteryl acyltransferase)
Conditions: read-out: Inhibition of Cholesteryl Ester (CE) Synthesis IC50; mouse liver microsome preparation, [14C]cholesteryl label, oleoyl coenzyme A

>  <structure>
CC(C)c1cc(C(C)C)c(CC(=O)NS(=O)(=O)Oc2c(C(C)C)cccc2C(C)C)c(C(C)C)c1

>  <IC50 / nM>
90

$$$$
